# TARGET_SYSTEM: monoamine oxidase-B (Rattus norvegicus)
# Construct: serves as the tissue source for mitochondrial monoamine oxidase
# Sequence (P19643 1-520): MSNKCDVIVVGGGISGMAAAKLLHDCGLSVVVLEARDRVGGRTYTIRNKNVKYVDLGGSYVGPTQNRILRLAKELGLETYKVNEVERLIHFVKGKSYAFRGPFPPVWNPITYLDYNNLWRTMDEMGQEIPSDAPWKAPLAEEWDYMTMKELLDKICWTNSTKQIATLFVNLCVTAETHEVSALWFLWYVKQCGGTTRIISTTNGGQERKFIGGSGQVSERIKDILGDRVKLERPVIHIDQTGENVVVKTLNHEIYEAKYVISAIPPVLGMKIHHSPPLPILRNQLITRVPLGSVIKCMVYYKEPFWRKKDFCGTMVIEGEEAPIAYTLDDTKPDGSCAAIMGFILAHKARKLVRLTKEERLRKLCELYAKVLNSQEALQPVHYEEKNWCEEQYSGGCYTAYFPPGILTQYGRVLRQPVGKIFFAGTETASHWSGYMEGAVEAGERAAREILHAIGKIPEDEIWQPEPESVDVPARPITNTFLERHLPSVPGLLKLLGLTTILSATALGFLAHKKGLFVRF
# METHOD: in vitro inhibition of monoamine oxidase assay (modified Kindt), MAO-B
# MEASUREMENT_CONDITIONS: rat whole brain minus cerebellum, mitochondrial P2 pellet; substrate [14C]-β-phenethylamine 200 µM; preincubated 15 minutes, incubated 30 minutes at 37°C; log-probit analysis
READOUT_TYPE: pIC50
Just the number, please; pIC50 means minus log10 of the concentration in mol/L.

[in] So what's the measured pIC50 for this one? `COc1ccc(CN2CCC3(CCc4c3n(C)c3ccccc43)CC2)cc1`
[out] 3.90
